So I've got a bunch of binders here, and I need their Kd values.
Molecular target: T1, Human interleukin-18 (recombinant human IL-18) (human, UniProt Q14116 37-193)
T1 construct: also called hIL-18
T1 sequence: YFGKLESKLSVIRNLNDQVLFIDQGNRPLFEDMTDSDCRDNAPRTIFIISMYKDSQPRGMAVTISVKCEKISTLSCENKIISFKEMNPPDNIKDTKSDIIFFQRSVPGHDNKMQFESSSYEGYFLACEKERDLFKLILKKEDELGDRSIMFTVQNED
Assay: SPR, Biacore 3000, antibody captured on Protein A, 25 C
Numbers only, in nM.

For the 5 binders below, give their Kd values.
1. H2L1 humanised anti-IL-18 antibody (antibody, human IgG1, kappa, V domains shown, Human IgG1 / kappa) VH: QVQLVQSGAEVKKPGASVKVSCKVSGEISTGYYFHWVRRRPGKGLEWMGRIDPEDDSTKYAERFKDRVTMTEDTSTDTAYMELSSLRSEDTAVYYCTTWRIYRDSSGRPFYVMDAWGQGTLVTVSS VL: DIQMTQSPSSVSASVGDRVTITCLASEDIYTYLTWYQQKPGKAPKLLIYGANKLQDGVPSRFSGSGSGTDFTLTISSLQPEDFATYYCLQGSKFPLTFGQGTKLEIKR
2. H3L2 humanised anti-IL-18 antibody (antibody, human IgG1, kappa, V domains shown, Human IgG1 / kappa) VH: QVQLVQSGAEVKKPGASVKVSCKVSGEISTGYYFHFVRRRPGKGLEWMGRIDPEDDSTKYAERFKDRVTMTADTSTDTAYMELSSLRSEDTATYFCTTWRIYRDSSGRPFYVMDAWGQGTLVTVSS VL: DIQMTQSPSSVSASVGDRVTITCLASEDIYTYLTWYQQKPGKAPKLLIYGANKLQDGVPSRFSGSGSGTDYTLTISSLQPEDFATYYCLQGSKFPLTFGQGTKLEIKR
3. 2C10 rat-human chimera (chimaeric antibody 2C10c) (antibody, V domains shown, Rat 2C10 V regions joined to human IgG1 and kappa C regions; also called Chimera 2C10; 2C10 Chimera) VH: EVQLQQSGAELVRPGTSVKLSCKVSGEISTGYYFHFVRRRPGQGLEWIGRIDPEDDSTKYAERFKDRATLTAQTSSNTAYLNLSSLTSEDTATYFCTTWRIYRDSSGRPFYVMDAWGQGTLVTVSS VL: DIQMTQSPASLSASLGETVSIECLASEDIYTYLTWYQQKPGKSPQLLIYGANKLQDGVPSRFSGSGSGTQYSLKISGIQPEDEGDYFCLQGSKFPLTFGSGTKLEIKR
4. H1L3 humanised anti-IL-18 antibody (antibody, human IgG1, kappa, V domains shown, Human IgG1 / kappa) VH: QVQLVQSGAEVKKPGASVKVSCKVSGEISTGYYFHWVRQAPGKGLEWMGRIDPEDDSTKYAERFKDRVTMTEDTSTDTAYMELSSLRSEDTAVYYCTTWRIYRDSSGRPFYVMDAWGQGTLVTVSS VL: DIQMTQSPSSVSASVGDRVTITCLASEDIYTYLTWYQQKPGKAPQLLIYGANKLQDGVPSRFSGSGSGTDYTLTISSLQPEDEGDYYCLQGSKFPLTFGQGTKLEIKR
5. H1L2 humanised anti-IL-18 antibody (antibody, human IgG1, kappa, V domains shown, Human IgG1 / kappa) VH: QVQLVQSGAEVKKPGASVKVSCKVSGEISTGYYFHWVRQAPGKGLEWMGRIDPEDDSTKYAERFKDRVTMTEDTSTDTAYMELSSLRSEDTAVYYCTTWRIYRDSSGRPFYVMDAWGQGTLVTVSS VL: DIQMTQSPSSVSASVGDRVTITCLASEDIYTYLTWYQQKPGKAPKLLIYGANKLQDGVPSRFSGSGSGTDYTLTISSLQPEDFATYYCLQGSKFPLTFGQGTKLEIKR

Resp:
1. 0.0335
2. 0.0165
3. 0.0139
4. 0.0225
5. 0.0303

# per-item lookup of Kd; items listed below
1. H1L1 humanised anti-IL-18 antibody (antibody, human IgG1, kappa, V domains shown, Human IgG1 / kappa) VH: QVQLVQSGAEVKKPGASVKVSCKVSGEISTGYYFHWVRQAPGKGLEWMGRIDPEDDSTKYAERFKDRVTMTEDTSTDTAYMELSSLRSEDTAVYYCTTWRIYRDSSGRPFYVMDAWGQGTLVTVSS VL: DIQMTQSPSSVSASVGDRVTITCLASEDIYTYLTWYQQKPGKAPKLLIYGANKLQDGVPSRFSGSGSGTDFTLTISSLQPEDFATYYCLQGSKFPLTFGQGTKLEIKR
2. H3L1 humanised anti-IL-18 antibody (antibody, human IgG1, kappa, V domains shown, Human IgG1 / kappa) VH: QVQLVQSGAEVKKPGASVKVSCKVSGEISTGYYFHFVRRRPGKGLEWMGRIDPEDDSTKYAERFKDRVTMTADTSTDTAYMELSSLRSEDTATYFCTTWRIYRDSSGRPFYVMDAWGQGTLVTVSS VL: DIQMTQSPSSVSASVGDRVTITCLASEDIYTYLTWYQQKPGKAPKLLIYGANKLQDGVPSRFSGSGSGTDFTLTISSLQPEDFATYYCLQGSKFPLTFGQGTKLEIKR
3. H2L2 humanised anti-IL-18 antibody (antibody, human IgG1, kappa, V domains shown, Human IgG1 / kappa) VH: QVQLVQSGAEVKKPGASVKVSCKVSGEISTGYYFHWVRRRPGKGLEWMGRIDPEDDSTKYAERFKDRVTMTEDTSTDTAYMELSSLRSEDTAVYYCTTWRIYRDSSGRPFYVMDAWGQGTLVTVSS VL: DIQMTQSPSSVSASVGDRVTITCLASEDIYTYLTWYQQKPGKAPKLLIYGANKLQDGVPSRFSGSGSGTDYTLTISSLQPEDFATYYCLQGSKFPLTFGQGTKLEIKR

Resp:
0.0332
0.0194
0.0201

List reported Kd for each of these binders:
1. H3L3 humanised anti-IL-18 antibody (antibody, human IgG1, kappa, V domains shown, Human IgG1 / kappa) VH: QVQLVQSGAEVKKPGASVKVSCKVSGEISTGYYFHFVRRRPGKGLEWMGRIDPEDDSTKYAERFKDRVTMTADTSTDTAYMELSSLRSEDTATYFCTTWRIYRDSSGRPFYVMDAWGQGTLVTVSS VL: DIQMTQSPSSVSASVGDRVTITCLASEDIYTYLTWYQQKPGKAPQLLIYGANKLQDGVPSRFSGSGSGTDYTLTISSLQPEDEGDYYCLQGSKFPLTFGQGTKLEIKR
2. H2L3 humanised anti-IL-18 antibody (antibody, human IgG1, kappa, V domains shown, Human IgG1 / kappa) VH: QVQLVQSGAEVKKPGASVKVSCKVSGEISTGYYFHWVRRRPGKGLEWMGRIDPEDDSTKYAERFKDRVTMTEDTSTDTAYMELSSLRSEDTAVYYCTTWRIYRDSSGRPFYVMDAWGQGTLVTVSS VL: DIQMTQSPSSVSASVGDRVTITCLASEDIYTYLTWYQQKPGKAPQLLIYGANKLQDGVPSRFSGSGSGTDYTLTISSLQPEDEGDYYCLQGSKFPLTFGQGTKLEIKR

Resp:
0.0242
0.0238
